Test system: HCC-78
Method Notes: relative viability (nuclei count vs DMSO), 5 days (fraction); higher = more cells survive
Condition Info: first compound 0.05 µM
Please respond with reported relative viability for every item in the list.
I only need the number, thanks.

Given Nc1ccn([C@@H]2O[C@H](CO)[C@@H](O)[C@@H]2O)c(=O)n1 [Cytarabine] + CC(=O)Nc1cccc(-n2c(=O)n(C3CC3)c(=O)c3c(Nc4ccc(I)cc4F)n(C)c(=O)c(C)c32)c1 [Trametinib] (partner 0.02 µM) , state its recorded relative viability. 0.575

Nc1ccn([C@@H]2O[C@H](CO)[C@@H](O)[C@@H]2O)c(=O)n1 [Cytarabine] + CS(=O)(=O)N1CCN(Cc2cc3nc(-c4cccc5[nH]ncc45)nc(N4CCOCC4)c3s2)CC1 [Pictilisib] (partner 1 µM) , same question. 0.139

COc1cc2nccc(Oc3ccc(NC(=O)Nc4cc(C)on4)c(Cl)c3)c2cc1OC [Tivozanib] + NC(=O)Nc1cc(-c2cccc(F)c2)sc1C(=O)N[C@H]1CCCNC1 [AZD7762] (partner 0.2 µM) , same question. 0.674

Nc1ccn([C@@H]2O[C@H](CO)[C@@H](O)[C@@H]2O)c(=O)n1 [Cytarabine] + Nc1nc2[nH]cc(CCc3ccc(C(=O)N[C@@H](CCC(=O)O)C(=O)O)cc3)c2c(=O)[nH]1 [Pemetrexed] (partner 0.2 µM) , same question. 0.889

Nc1ccn([C@@H]2O[C@H](CO)[C@@H](O)[C@@H]2O)c(=O)n1 [Cytarabine] + N=C(N)NC(=N)NCCc1ccccc1 [Phenformin] (partner 250 µM) , same question. 0.466

Nc1ccn([C@@H]2O[C@H](CO)[C@@H](O)[C@@H]2O)c(=O)n1 [Cytarabine] + O=C(CCCCCCC(=O)Nc1ccccc1)NO [Vorinostat] (partner 1 µM) , same question. 0.402

Nc1ccn([C@@H]2O[C@H](CO)[C@@H](O)[C@@H]2O)c(=O)n1 [Cytarabine] + CC1(C)CCC(c2ccc(Cl)cc2)=C(CN2CCN(c3ccc(C(=O)NS(=O)(=O)c4ccc(N[C@H](CCN5CCOCC5)CSc5ccccc5)c(S(=O)(=O)C(F)(F)F)c4)cc3)CC2)C1 [Navitoclax] (partner 0.5 µM) , same question. 0.684

COc1cc2nccc(Oc3ccc(NC(=O)Nc4cc(C)on4)c(Cl)c3)c2cc1OC [Tivozanib] + C[C@@H](Oc1cc(-c2cnn(C3CCNCC3)c2)cnc1N)c1c(Cl)ccc(F)c1Cl [Crizotinib] (partner 1 µM) , same question. 0.313

Nc1ccn([C@@H]2O[C@H](CO)[C@@H](O)[C@@H]2O)c(=O)n1 [Cytarabine] + NC(=O)Nc1cc(-c2cccc(F)c2)sc1C(=O)N[C@H]1CCCNC1 [AZD7762] (partner 0.2 µM) , same question. 0.486

COc1cc2nccc(Oc3ccc(NC(=O)Nc4cc(C)on4)c(Cl)c3)c2cc1OC [Tivozanib] + CS(=O)(=O)CCNCc1ccc(-c2ccc3ncnc(Nc4ccc(OCc5cccc(F)c5)c(Cl)c4)c3c2)o1 [Lapatinib] (partner 2 µM) , same question. 0.851

----------
Tested on: HARA
Method Notes: relative viability (nuclei count vs DMSO), 5 days (fraction); higher = more cells survive
Condition Info: first compound 0.0002 µM
Define the label as condition met when relative viability is strictly less than 0.2 and as condition not met in all remaining cases.

Hello, is relative viability of the following compound strictly smaller than 0.2? CC(=O)O[C@@]12CO[C@@H]1C[C@H](O)[C@@]1(C)C(=O)[C@H](O)C3=C(C)[C@@H](OC(=O)[C@H](O)[C@@H](NC(=O)OC(C)(C)C)c4ccccc4)C[C@@](O)([C@@H](OC(=O)c4ccccc4)[C@H]21)C3(C)C [Docetaxel] + Cc1cc(Nc2cc(N3CCN(C)CC3)nc(Sc3ccc(NC(=O)C4CC4)cc3)n2)n[nH]1 [Tozasertib] (partner 0.1 µM) condition met

CC(=O)O[C@@]12CO[C@@H]1C[C@H](O)[C@@]1(C)C(=O)[C@H](O)C3=C(C)[C@@H](OC(=O)[C@H](O)[C@@H](NC(=O)OC(C)(C)C)c4ccccc4)C[C@@](O)([C@@H](OC(=O)c4ccccc4)[C@H]21)C3(C)C [Docetaxel] + CCNC(=O)c1noc(-c2cc(C(C)C)c(O)cc2O)c1-c1ccc(CN2CCOCC2)cc1 [Luminespib] (partner 0.01 µM) , same question. condition not met

CC(=O)O[C@@]12CO[C@@H]1C[C@H](O)[C@@]1(C)C(=O)[C@H](O)C3=C(C)[C@@H](OC(=O)[C@H](O)[C@@H](NC(=O)OC(C)(C)C)c4ccccc4)C[C@@](O)([C@@H](OC(=O)c4ccccc4)[C@H]21)C3(C)C [Docetaxel] + CC(=O)Nc1cccc(-n2c(=O)n(C3CC3)c(=O)c3c(Nc4ccc(I)cc4F)n(C)c(=O)c(C)c32)c1 [Trametinib] (partner 0.02 µM) , same question. condition not met

CC(=O)O[C@@]12CO[C@@H]1C[C@H](O)[C@@]1(C)C(=O)[C@H](O)C3=C(C)[C@@H](OC(=O)[C@H](O)[C@@H](NC(=O)OC(C)(C)C)c4ccccc4)C[C@@](O)([C@@H](OC(=O)c4ccccc4)[C@H]21)C3(C)C [Docetaxel] + COc1cccc2cc(-c3nc([C@H]4CC[C@H](C(=O)O)CC4)n4ncnc(N)c34)[nH]c12 [OSI-027] (partner 0.5 µM) , same question. condition not met
